# target_entity: T1, human IL-33 (R&D Systems, #3625-IL-010/CF) (human) (UniProt O95760)
# T1 sequence (looked up): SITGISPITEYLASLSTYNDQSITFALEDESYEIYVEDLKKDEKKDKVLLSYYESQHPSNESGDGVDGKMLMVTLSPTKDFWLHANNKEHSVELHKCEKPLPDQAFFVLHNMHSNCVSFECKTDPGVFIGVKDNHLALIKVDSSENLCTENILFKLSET
parameter_measured: IC50; SEAP reporter (OD 620), HEK-BLUE IL-33/IL-1beta cells, 10 pM hIL-33 (M)
Give just the number in M; leave the unit off.

H4H9676P (antibody, from another filing, IgG4, V domains shown) VH: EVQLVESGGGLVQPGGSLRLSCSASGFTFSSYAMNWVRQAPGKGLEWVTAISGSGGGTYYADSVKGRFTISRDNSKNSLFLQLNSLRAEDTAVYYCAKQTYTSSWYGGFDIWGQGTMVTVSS VL: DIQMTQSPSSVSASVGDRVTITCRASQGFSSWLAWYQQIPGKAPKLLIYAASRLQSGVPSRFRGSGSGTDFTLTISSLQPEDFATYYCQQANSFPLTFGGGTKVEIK = 8.2e-10

In the following, a different binder is considered.
# input Need IC50; SEAP reporter (OD 620), HEK-BLUE IL-33/IL-1beta cells, 10 pM hIL-33, item H4H9670P (antibody, from another filing, IgG4, V domains shown) VH: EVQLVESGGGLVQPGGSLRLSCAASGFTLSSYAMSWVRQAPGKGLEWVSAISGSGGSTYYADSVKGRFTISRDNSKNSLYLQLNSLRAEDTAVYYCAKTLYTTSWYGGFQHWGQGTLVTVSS VL: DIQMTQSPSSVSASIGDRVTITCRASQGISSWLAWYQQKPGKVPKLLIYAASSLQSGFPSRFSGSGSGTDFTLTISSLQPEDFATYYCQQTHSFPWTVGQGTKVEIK
# output 2.6e-09

Reference for the values: patent US20190092852A1
